Entry source: ChEMBL document CHEMBL2069194

# Tested on: Glycine max
# measurement_description: Inhibition of soybean lipoxygenase using sodium linoleate substrate at 100 uM
Mark Y for reported inhibition of 50% or greater; mark N for anything smaller.

Some entries whose results are on file:
{"compound": "COC(=O)[C@H]1N=C(SC(C)C)[C@H]2C(=O)N(c3ccccc3)C(=O)[C@H]21 (relative stereo)", "tested_on": "Glycine max", "category_label": "N"}
{"compound": "CC(Cc1ccc(O)c(O)c1)C(C)Cc1ccc(O)c(O)c1 (configuration not stated)", "tested_on": "Glycine max", "category_label": "Y"}
{"compound": "CCSC1=N[C@H](C(=O)OC)[C@@H]2C(=O)N(c3ccccc3)C(=O)[C@H]12 (relative stereo)", "tested_on": "Glycine max", "category_label": "N"}
{"compound": "CCCCSC1=N[C@H](C(=O)OC)[C@@H]2C(=O)N(c3ccccc3)C(=O)[C@H]12 (relative stereo)", "tested_on": "Glycine max", "category_label": "Y"}
{"compound": "CCCSC1=N[C@H](C(=O)OC)[C@@H]2C(=O)N(c3ccccc3)C(=O)[C@H]12 (relative stereo)", "tested_on": "Glycine max", "category_label": "N"}
{"compound": "CCCCSC1=N[C@@H](C(=O)OC)[C@@H]2C(=O)N(c3ccccc3)C(=O)[C@H]12 (relative stereo)", "tested_on": "Glycine max", "category_label": "Y"}
{"compound": "CCSC1=N[C@@H](C(=O)OC)[C@@H]2C(=O)N(c3ccccc3)C(=O)[C@H]12 (relative stereo)", "tested_on": "Glycine max", "category_label": "Y"}
{"compound": "COC(=O)[C@@H]1N=C(SCc2ccccc2)[C@H]2C(=O)N(c3ccccc3)C(=O)[C@H]21 (relative stereo)", "tested_on": "Glycine max", "category_label": "Y"}
{"compound": "COC(=O)[C@H]1N=C(SCc2ccccc2)[C@H]2C(=O)N(c3ccccc3)C(=O)[C@H]21 (relative stereo)", "tested_on": "Glycine max", "category_label": "Y"}

Reported inhibition reaches at least 50% for CCCSC1=N[C@@H](C(=O)OC)[C@@H]2C(=O)N(c3ccccc3)C(=O)[C@H]12 (relative stereo) ? N

---

# inhibition per record follows
# measurement_description: Antioxidant activity assessed as inhibition of linoleic acid peroxidation at 100 uM by AAPH assay by UV spectrometry
# Format: functional
Respond with the bare value in %.

{"compound": "CCCSC1=N[C@H](C(=O)OC)[C@@H]2C(=O)N(c3ccccc3)C(=O)[C@H]12 (relative stereo)", "units_of_measure": "%", "inhibition": 86}
{"compound": "CCSC1=N[C@@H](C(=O)OC)[C@@H]2C(=O)N(c3ccccc3)C(=O)[C@H]12 (relative stereo)", "units_of_measure": "%", "inhibition": 91}
{"compound": "COC(=O)[C@H]1N=C(SC(C)C)[C@H]2C(=O)N(c3ccccc3)C(=O)[C@H]21 (relative stereo)", "units_of_measure": "%", "inhibition": 72}

The record that follows has no inhibition shown yet.
For Cc1c(C)c2c(c(C)c1O)CCC(C)(C(=O)O)O2 (centres undefined) the compound record lists inhibition as 63

---

# measurement_description: Antioxidant activity assessed as inhibition of linoleic acid peroxidation at 100 uM by AAPH assay by UV spectrometry
# Format: functional
# inhibition per record follows
Reply with the number and its unit after it.

Recorded results for 5 compounds are shown here.
{"compound": "COC(=O)[C@H]1N=C(SCc2ccccc2)[C@H]2C(=O)N(c3ccccc3)C(=O)[C@H]21 (relative stereo)", "inhibition": "76%"}
{"compound": "COC(=O)[C@@H]1N=C(SC)[C@H]2C(=O)N(c3ccccc3)C(=O)[C@H]21 (relative stereo)", "inhibition": "93%"}
{"compound": "CCCCSC1=N[C@@H](C(=O)OC)[C@@H]2C(=O)N(c3ccccc3)C(=O)[C@H]12 (relative stereo)", "inhibition": "82%"}
{"compound": "COC(=O)[C@@H]1N=C(SCc2ccccc2)[C@H]2C(=O)N(c3ccccc3)C(=O)[C@H]21 (relative stereo)", "inhibition": "98%"}
{"compound": "CCSC1=N[C@H](C(=O)OC)[C@@H]2C(=O)N(c3ccccc3)C(=O)[C@H]12 (relative stereo)", "inhibition": "89%"}

For CCCCSC1=N[C@H](C(=O)OC)[C@@H]2C(=O)N(c3ccccc3)C(=O)[C@H]12 (relative stereo) the compound record lists inhibition as 89%

For COC(=O)[C@@H]1N=C(SC(C)C)[C@H]2C(=O)N(c3ccccc3)C(=O)[C@H]21 (relative stereo) the compound record lists inhibition as 89%

For CCCSC1=N[C@@H](C(=O)OC)[C@@H]2C(=O)N(c3ccccc3)C(=O)[C@H]12 (relative stereo) the compound record lists inhibition as 86%

For COC(=O)[C@H]1N=C(SC)[C@H]2C(=O)N(c3ccccc3)C(=O)[C@H]21 (relative stereo) the compound record lists inhibition as 84%
